B1: r11_951_TrROS_Hall (parent)
chain: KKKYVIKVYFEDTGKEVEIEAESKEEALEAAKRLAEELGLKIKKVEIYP

# Variants of: B1
# EXPERIMENT_DESCRIPTION: folding stability dG (cDNA display proteolysis); higher = more stable
# EXPERIMENTAL_CONDITIONS: PBS, room temperature
For each entry below, report its folding stability dG value.
One number for each entry, in kcal/mol.

Prompt: I am curious: what folding stability dG value has been reported for E26G ?
Completion: 4.58

Record folding stability dG for all entries; do not skip any.
1. L40E
2. R33M
3. K41Y
4. I6H
5. Y4E
6. Y4P

Completion:
[3.99, 4.32, 4.5, 2.82, 2.73, 2.44]

// each listed variant needs a value for folding stability dG
1. E20D
2. E29S
3. Y4C
4. L38S
5. L34V
6. K7T
7. K2R

Completion:
1. 4.27
2. 4.56
3. 3.85
4. 4.28
5. 4.51
6. 4.07
7. 4.48

Lab note: each variant below needs its folding stability dG filled in.
1. L40H
2. G14H
3. E26Y
4. E11L

Completion:
1. 4.12
2. 4.27
3. 4.83
4. 4.92
